target: Steroid 17-alpha-hydroxylase/17,20 lyase (Rattus norvegicus, UniProt P11715); experiment: Inhibition of rat cytochrome P450 17A1
IC50 values for the compounds below.
readout-name: IC50

C[C@]12CCC(=O)C=C1CCC1C2CC[C@]2(C)C(n3ccnn3)=CCC12 (some centres not stated) | 0.009 µM
C[C@]12CC[C@H](O)CC1=CC[C@@H]1[C@@H]2CC[C@]2(C)C(n3cncn3)=CC[C@@H]12 | 0.026 µM

---

Let's go through some recorded Ki values for Steroid 17-alpha-hydroxylase/17,20 lyase (Homo sapiens) together.
readout-name: Ki (nM)

C[C@]12CC[C@H](O)CC1=CCC1C2CC[C@]2(C)C(n3ccnc3)=CCC12 (stereo not given in full) | 1.2
C[C@]12CC[C@H](O)CC1=CC[C@@H]1[C@@H]2CC[C@]2(C)C(n3cncn3)=CC[C@@H]12 | 23
C[C@]12CC[C@H](O)CC1=CCC1C2CC[C@]2(C)C(n3ccnn3)=CCC12 (stereo not given in full) | 1.4
C[C@]12CCC(=O)C=C1CCC1C2CC[C@]2(C)C(n3ccnc3)=CCC12 (stereo not given in full) | 1.9
C[C@]12CCC(=O)C=C1CCC1C2CC[C@]2(C)C(n3cncn3)=CCC12 (stereo not given in full) | 41

---

biological target: Steroid 17-alpha-hydroxylase/17,20 lyase (Homo sapiens, UniProt P05093)
Sequence (P05093 whole entry): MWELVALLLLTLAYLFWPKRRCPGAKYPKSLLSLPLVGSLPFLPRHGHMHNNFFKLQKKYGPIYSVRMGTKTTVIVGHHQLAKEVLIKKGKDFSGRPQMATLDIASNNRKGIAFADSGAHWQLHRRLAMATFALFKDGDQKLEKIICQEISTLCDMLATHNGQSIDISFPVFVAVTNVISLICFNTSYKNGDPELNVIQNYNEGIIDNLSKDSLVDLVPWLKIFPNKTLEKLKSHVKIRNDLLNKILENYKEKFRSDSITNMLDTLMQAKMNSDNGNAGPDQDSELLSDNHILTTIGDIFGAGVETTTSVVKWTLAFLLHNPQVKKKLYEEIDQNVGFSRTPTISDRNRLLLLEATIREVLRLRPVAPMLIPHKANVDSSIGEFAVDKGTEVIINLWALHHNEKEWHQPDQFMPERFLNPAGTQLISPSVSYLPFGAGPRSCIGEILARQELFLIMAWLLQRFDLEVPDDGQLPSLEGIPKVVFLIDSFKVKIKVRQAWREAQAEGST
readout-name: Ki (nM)

C[C@]12CCC(=O)C=C1CCC1C2CC[C@]2(C)C(n3ccnn3)=CCC12 (stereo partly specified) | 8

---

pIC50 overview
Biological target: Steroid 17-alpha-hydroxylase/17,20 lyase (Rattus norvegicus, UniProt P11715)
Sequence (P11715 whole entry): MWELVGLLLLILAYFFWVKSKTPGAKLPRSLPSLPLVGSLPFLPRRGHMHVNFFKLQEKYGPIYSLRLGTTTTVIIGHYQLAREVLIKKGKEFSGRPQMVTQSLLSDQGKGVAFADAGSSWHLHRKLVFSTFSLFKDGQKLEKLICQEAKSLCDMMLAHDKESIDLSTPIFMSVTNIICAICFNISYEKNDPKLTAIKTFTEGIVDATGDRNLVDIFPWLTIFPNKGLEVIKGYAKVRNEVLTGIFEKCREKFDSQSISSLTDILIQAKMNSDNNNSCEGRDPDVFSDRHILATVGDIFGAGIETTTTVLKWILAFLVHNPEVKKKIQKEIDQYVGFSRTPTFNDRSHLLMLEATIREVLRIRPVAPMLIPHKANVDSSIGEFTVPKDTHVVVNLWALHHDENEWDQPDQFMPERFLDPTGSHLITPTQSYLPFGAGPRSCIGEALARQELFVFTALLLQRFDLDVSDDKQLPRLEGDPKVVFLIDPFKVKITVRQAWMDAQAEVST
Experiment: Inhibition of rat Cytochrome P450 17A1
pIC50: −log10 of the molar value.
readout-name: pIC50

C[C@]12CCC(=O)C=C1CCC1C2CC[C@]2(C)C(n3ccnc3)=CCC12 (some centres undefined) | 8.10
C[C@]12CC[C@H](O)CC1=CCC1C2CC[C@]2(C)C(n3ccnc3)=CCC12 (some centres undefined) | 8.05
C[C@]12CC[C@H](O)CC1=CCC1C2CC[C@]2(C)C(n3ccnn3)=CCC12 (some centres undefined) | 8.00
C[C@]12CCC(=O)C=C1CCC1C2CC[C@]2(C)C(n3cncn3)=CCC12 (some centres undefined) | 7.96

Measured values drawn from ChEMBL document CHEMBL1131494 for this set.
